Biological target: T1, Rhesus D antigen (human, UniProt Q02161 2-417)
T1 construct: whole, on cells; Presented on RhD-positive erythrocytes in all assays; also called RhD; RhD antigen
T1 sequence (looked up): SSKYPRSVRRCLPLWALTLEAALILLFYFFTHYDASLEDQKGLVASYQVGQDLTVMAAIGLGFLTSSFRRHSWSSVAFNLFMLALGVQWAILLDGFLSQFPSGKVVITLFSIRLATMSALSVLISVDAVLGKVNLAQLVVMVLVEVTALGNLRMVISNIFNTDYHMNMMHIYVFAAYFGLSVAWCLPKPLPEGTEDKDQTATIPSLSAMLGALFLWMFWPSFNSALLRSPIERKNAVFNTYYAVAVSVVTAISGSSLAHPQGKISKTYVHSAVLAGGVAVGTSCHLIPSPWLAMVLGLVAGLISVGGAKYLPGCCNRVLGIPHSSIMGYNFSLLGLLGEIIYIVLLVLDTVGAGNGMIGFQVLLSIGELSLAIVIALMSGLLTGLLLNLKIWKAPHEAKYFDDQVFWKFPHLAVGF
Assay: agglutination assay, Fab on RhD(+)/RhD(-) RBC mix

{"Binder": "RhD198.127F10 (Fab, V domains shown, Tested as Fab (periplasmic extract)) VH: QVQLVQSGGGVVQPGKSLRLSCAASGFTFSTYGMHWVRQAPGKGLEWVAVIWYDGSNKYYADSVKGRFTISRDTSKNTLYLQMNSVRVEDTAVYYCARDLTTQRGYSRYHYVMDVWGQGTTVTVSS VL: DIQMTQSPSSLSASVGDRVTITCRASQSIGNYLNWYQQKPGKAPKLLISAASSLQSGVPSRFSGSGSGTDFTLTISSLHREDYATYYCQQSYSTPPYTFGQGTKLEIKR", "binding result": "binds"}
{"Binder": "RhD296.126A03 (Fab, V domains shown, Tested as Fab (periplasmic extract)) VH: EVQLVESGGGVVQPGRSLRLSCEASGFTFSNYGMHWFRQAPGKGLEWVAIIWYDGSNKHYADSVKGRFTISRDNSKNTLYLQMNSLRAEDTAVYFCAREIASRGYSRYLYYFDSWGQGTLVTVSS VL: DIQMTQSPSSLSASVGDRVTITCRASQSISSYLNWYQQKPGKAPKLLIFAASSLQSGVPSRFSGSGSGTDFSLTISSLQPEDFATYYCQQSYSSLALTFGGGTKVEIKR", "binding result": "binds"}
{"Binder": "RhD161.119E09 (Fab, V domains shown, Tested as Fab (periplasmic extract)) VH: EVQLVESGGGVVQSGRSLRLSCAASGFTFSNNGMHWVRQAPGKGLEWVAFIWYDGSNKYYADSVKGRFTISRDNSKNTLYLQMDGLRAEDSAVYYCAREEIAARLYSRYHYAMDVWGQGTMVTVSS VL: DIQMTQSPSFLSASVGDRVTITCRASQGIRRYLAWFQQKPGKAPKLLIFSASTLQSGVPSRFSGSGSGTEFTLTISSLQPEDFATYYCQQLSSYPPYTFGQGTKLEIKR", "binding result": "binds"}
